Values from paper PMC10891134

Give Kd for every item shown.
Tgt: RutR AcK11 K11AcK (Escherichia coli K12?) (UniProt P0ACU2)
Sequence (P0ACU2 whole entry): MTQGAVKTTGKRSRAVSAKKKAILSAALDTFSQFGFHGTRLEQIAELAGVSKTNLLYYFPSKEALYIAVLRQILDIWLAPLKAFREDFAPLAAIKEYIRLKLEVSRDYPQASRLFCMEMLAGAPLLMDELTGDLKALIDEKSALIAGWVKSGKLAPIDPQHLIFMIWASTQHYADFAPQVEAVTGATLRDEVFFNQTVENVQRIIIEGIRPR
Protocol text: ITC
Condition notes: ITC: 100 mM potassium phosphate pH 6.4, 150 mM NaCl, 5 mM MgCl2, 2 mM b-ME, 20 or 25 C; SPR: 100 mM potassium phosphate pH 6.4, 300 mM NaCl, 0.05% Tween20 …
Give the value in nM but do not write nM after it.

[ask] # query: Kd of entry GTTTTAATGTAAATTTTGACCATTTGGTCCACTTTTTTCTGCTCGT (double strand) [boxcarA]
[reply] 82

[ask] # query: Kd of entry GTTTTATGTGCAACTGTTTTGACCGTTTAGTCCACTTTTTACCAGATATTTTAG (double strand) [boxrutA]
[reply] 95
